Origin of measurements: the supplement of paper PMC10065799

- Target Of Assay: EPHB2 (UniProt P29323)
- Sequence (P29323 whole entry, looked up): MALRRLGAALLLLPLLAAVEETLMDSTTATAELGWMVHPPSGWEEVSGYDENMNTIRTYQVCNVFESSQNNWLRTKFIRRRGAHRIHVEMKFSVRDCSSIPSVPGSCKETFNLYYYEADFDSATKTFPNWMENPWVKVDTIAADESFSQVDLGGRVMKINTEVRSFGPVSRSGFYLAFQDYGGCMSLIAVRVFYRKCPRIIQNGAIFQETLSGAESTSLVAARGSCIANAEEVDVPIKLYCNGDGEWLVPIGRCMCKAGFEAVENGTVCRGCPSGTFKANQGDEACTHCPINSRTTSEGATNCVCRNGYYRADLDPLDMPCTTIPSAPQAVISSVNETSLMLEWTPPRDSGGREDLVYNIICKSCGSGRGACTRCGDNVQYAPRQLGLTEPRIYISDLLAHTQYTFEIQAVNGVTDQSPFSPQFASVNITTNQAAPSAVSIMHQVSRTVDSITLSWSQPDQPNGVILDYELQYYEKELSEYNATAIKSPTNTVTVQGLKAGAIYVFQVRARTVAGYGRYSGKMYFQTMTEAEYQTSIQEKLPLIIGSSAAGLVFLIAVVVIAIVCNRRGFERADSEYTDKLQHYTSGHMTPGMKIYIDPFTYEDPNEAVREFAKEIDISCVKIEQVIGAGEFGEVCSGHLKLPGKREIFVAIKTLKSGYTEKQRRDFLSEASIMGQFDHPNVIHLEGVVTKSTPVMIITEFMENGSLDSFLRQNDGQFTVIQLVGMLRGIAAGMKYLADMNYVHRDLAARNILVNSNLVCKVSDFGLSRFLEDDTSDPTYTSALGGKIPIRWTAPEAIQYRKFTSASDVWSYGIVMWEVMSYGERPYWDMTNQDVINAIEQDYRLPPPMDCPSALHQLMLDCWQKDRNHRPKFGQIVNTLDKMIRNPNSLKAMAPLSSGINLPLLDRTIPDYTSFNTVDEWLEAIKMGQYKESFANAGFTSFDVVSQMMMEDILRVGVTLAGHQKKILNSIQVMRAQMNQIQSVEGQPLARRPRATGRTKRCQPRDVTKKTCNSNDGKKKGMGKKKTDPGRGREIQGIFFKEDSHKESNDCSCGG
- Protocol Notes: phosphorylation enrichment, bacterial display (enrichment ratio); higher = better substrate or ligand; peptides without Tyr show the background;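 note: 11-residue human phosphosite peptides and single-mutation variants displayed on the E. coli surface, counted by deep sequencing, each peptide's frequency after selection divided by its frequency in the unselected input library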;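 note: frequency after pTyr selection over input frequency; kinase dosed for 20-30% of maximal phosphorylation in three min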
Metric Name: phosphorylation enrichment
Returns: the value as a bare number; no unit string appended.

These recorded examples may help you get a feel for the data.
INSERT INTO assay_data (item_sequence, target_of_assay, metric_name, quantitative_readout) VALUES
  ('PDSVDYRKKGY [CTSK_Y121]', 'EPHB2 (UniProt P29323)', 'phosphorylation enrichment', 1.67),
  ('RHYVYYYSYLL [PTEN_Y177_R173H]', 'EPHB2 (UniProt P29323)', 'phosphorylation enrichment', 2.13),
  ('RVLHNYLVWCV [ECEL1_Y400_R404C]', 'EPHB2 (UniProt P29323)', 'phosphorylation enrichment', 0.752),
  ('PRIHSYRGHLW [VHL_Y112_R107P]', 'EPHB2 (UniProt P29323)', 'phosphorylation enrichment', 0.451),
  ('VIVRMYDFHVL [RPF2_Y109_G106V_YF]', 'EPHB2 (UniProt P29323)', 'phosphorylation enrichment', 1.55),
  ('DLQDEYDFKCK [STAT1_Y170]', 'EPHB2 (UniProt P29323)', 'phosphorylation enrichment', 0.702);

Consider now this further sequence.
**Query** Returns the measured phosphorylation enrichment for the input sequence. Input: PVFEVYPLLNC [GATA1_Y78_Q76E]
**Result** 0.756
